Reference source for all entries: patent US10940139B2

Catalogue of inhibition at 20 µM values
molecular target: Rac-1 (Homo sapiens (Human), UniProt P63000); assay: Rac inhibition assay (labeled GTP); type: binding; conditions: read-out: Rac-1 % Inh.

> print(dat)
                                    compound  observed.result
 1  Cn1ccnc1-c1nc(O)c2scc(-c3ccc(C(C)(C)C)cc3)c2n1 [drawing 3937]        25 to 50%
 2  Cn1cnc(-c2nc(O)c3c(-c4ccccc4)c(-c4ccc(CNC(=O)OC(C)(C)C)cc4)sc3n2)c1 [drawing 3855]        25 to 50%
 3  O=C(c1csc2c(O)nc(-c3ccccn3)nc12)N1CCOC(Cc2ccccc2)C1 (stereo not drawn) [drawing 3660]       76 to 100%
 4  O=C(NCCc1cnc(O)nc1)c1csc2nc(-c3ccccn3)nc(N3CCS(=O)(=O)CC3)c12 [drawing 3726]        51 to 75%
 5  O=C(CCn1ccnc1)Nc1nc(-c2ccccn2)nc2sccc12 [drawing 3761]       76 to 100%
 6  Cc1cnc(-c2ccccn2)nc1NC(=O)Cc1ccc2cnccc2c1 [drawing 3728]       76 to 100%
 7  Cc1cncc(-c2csc3c(O)nc(-c4ccccn4)nc23)c1 [drawing 3785]        51 to 75%
 8  O=C(O)c1cc2nc(-c3ccccn3)nc(O)c2s1 [drawing 3722]       76 to 100%
 9  Nc1nc(O)c2sc(-c3cccc(C(=O)NCc4ncc[nH]4)c3)cc2n1 [drawing 3863]               0%
10  COc1ccc(-c2csc3c(O)nc(-c4nccn4C)nc23)cn1 [drawing 3931]        51 to 75%

Please report the measured inhibition at 20 µM for COCCNc1nc(-c2nccn2C)nc2sc(-c3ccncc3)c(-c3ccccc3)c12 [drawing 3900]
51 to 75%

Please report the measured inhibition at 20 µM for Oc1nc(-c2ccccn2)nc2c(-c3ccccc3F)csc12 [drawing 3740]
76 to 100%

Please report the measured inhibition at 20 µM for CC(O)CNc1nc(-c2nccn2C)nc2sc(-c3ccccc3)c(-c3ccccc3)c12 (stereo not drawn) [drawing 3887]
25 to 50%

Please report the measured inhibition at 20 µM for CN(C)Cc1ccc(F)c(-c2csc3c(O)nc(-c4ccccn4)nc23)c1 [drawing 3773]
51 to 75%

Please report the measured inhibition at 20 µM for COc1ccc(-c2c(C)sc3c(O)nc(-c4nccn4C)nc23)cn1 [drawing 3919]
1 to 25%

Please report the measured inhibition at 20 µM for CC(C)Cc1csc2c(O)nc(-c3ccccn3)nc12 [drawing 3813]
76 to 100%

Please report the measured inhibition at 20 µM for Oc1nc(-c2ccccn2)nc2c(-c3cc(F)cc(F)c3)csc12 [drawing 3772]
51 to 75%

Please report the measured inhibition at 20 µM for Oc1nc(-c2ccccn2)nc2c(Br)c(-c3ccccc3)sc12 [drawing 3871]
25 to 50%

###

target: KRas G12D/Q61H double mutant (Homo sapiens (Human), UniProt P01116, G12D/Q61H); experiment: Ras GTP binding domain inhibition assay (labeled GTP); conditions: 20 μM; read-out: KRas G12D Q61H % Inh.
Sequence (P01116-2 other isoform, or with tags, fused parts or gaps G12D/Q61H): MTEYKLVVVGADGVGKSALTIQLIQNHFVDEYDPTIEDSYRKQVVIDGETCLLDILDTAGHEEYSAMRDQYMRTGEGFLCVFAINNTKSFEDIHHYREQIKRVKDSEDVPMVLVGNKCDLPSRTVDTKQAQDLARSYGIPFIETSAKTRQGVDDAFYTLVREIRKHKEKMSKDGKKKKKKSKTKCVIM
Catalogue of inhibition at 20 µM values

> print(dat)
                                   compound  observed.result
1  O=C(Nc1nc(-c2ccccn2)cs1)c1cccnc1 [drawing 2576]        51 to 75%
2  COC(=O)c1cc(NCc2nc(CC(C)C)no2)ccc1Cl [drawing 2612]        51 to 75%
3  O=C(Nc1nnc(-c2ccccn2)[nH]1)c1ccc(CN2C(=O)CCC2=O)cc1 [drawing 2481]        51 to 75%
4  NC(=O)C1(CNc2nc(-c3ccccn3)nc3c2CCC3)CCCC1 [drawing 2608]        51 to 75%
5  Cc1sc2[nH]c(-c3ccccn3)nc(=O)c2c1-c1ccccc1 [drawing 2586]        51 to 75%
6  O=c1nc(-c2ccccn2)[nH]c2c1sc1ccccc12 [drawing 2592]        51 to 75%
7  O=C(CCNC(=O)c1ccco1)Nc1nnc(-c2ccccn2)[nH]1 [drawing 2503]        51 to 75%
8  O=C(CCCc1nc2ccccc2s1)Nc1nnc(-c2ccccn2)[nH]1        51 to 75%

The record that follows has no inhibition at 20 µM shown yet.
Please report the measured inhibition at 20 µM for O=C(Nc1nnc(-c2ccccn2)[nH]1)C1=NOC(c2ccccc2)C1 (stereo not drawn) [drawing 2544]
51 to 75%

###

test system: MIA-PACA2 pancreatic cancer cell lines; assay: Cell proliferation assay (CellTiter 96 AQueous One); format: cell-based; settings: Homo sapiens, MIA PaCa-2; at 30 μM, MIA-PACA2
REPORTED_ENDPOINT: inhibition at 30 µM

Example results:
> print(dat)
                                   compound    reported.endpoint  observed.result
1  COc1ccc(COCC(=O)Nc2ccnc(-c3ccccn3)n2)cn1 [drawing 1585]  inhibition at 30 µM         1 to 25%
2  c1ccc(-c2csc3nc(-c4ccccn4)nc(N4CCN(Cc5cccnc5)CC4)c23)cc1 [drawing 1602]  inhibition at 30 µM       76 to 100%
3  N#Cc1ncn(-c2nc(-c3ccccn3)nc3sc(-c4ccccc4)cc23)n1 [drawing 1595]  inhibition at 30 µM       76 to 100%
4  O=C(COc1ccccc1)Nc1nnc(-c2ccccn2)[nH]1 [drawing 1456]  inhibition at 30 µM        25 to 50%

The record that follows has no inhibition at 30 µM shown yet.
Tell me its inhibition at 30 µM on MIA-PACA2 pancreatic cancer cell lines: COCCCCNC(=O)c1csc2nc(-c3ccccn3)nc(N(CCOC)CCOC)c12 [drawing 1686]
76 to 100%

###

biological target: KRas Q61H mutant (Homo sapiens (Human), UniProt P01116, Q61H); assay: Ras GTP binding domain inhibition assay (labeled GTP); settings: 20 μM compound; KRas Q61H; read-out: % Inhibition at 20 μM of K-Ras mutant and wild-type protein, KRas Q61H
Sequence (P01116-2 other isoform, or with tags, fused parts or gaps Q61H): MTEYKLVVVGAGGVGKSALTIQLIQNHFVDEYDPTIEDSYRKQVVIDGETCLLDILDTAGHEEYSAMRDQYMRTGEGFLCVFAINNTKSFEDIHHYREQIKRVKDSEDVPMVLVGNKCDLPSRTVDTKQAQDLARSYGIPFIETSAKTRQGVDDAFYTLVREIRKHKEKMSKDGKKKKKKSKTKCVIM
REPORTED_ENDPOINT: inhibition at 20 µM

> print(dat)
                                   compound    reported.endpoint  observed.result
1  Oc1nc(-c2ccccn2)nc2cc(-c3ccncc3)sc12 [drawing 3561]  inhibition at 20 µM        25 to 50%
2  CC(C)c1nn(C)cc1-c1csc2c(O)nc(-c3ccccn3)nc12 [drawing 3501]  inhibition at 20 µM        51 to 75%
3  Cn1cnc(-c2nc(O)c3c(-c4ccccc4)c(-c4ccc(CNC(=O)OC(C)(C)C)cc4)sc3n2)c1 [drawing 3537]  inhibition at 20 µM         1 to 25%
4  CN(C)CCOc1cccc(-c2csc3c(O)nc(-c4ccccn4)nc23)c1 [drawing 3492]  inhibition at 20 µM       76 to 100%
5  CC(C)(C)c1sc2c(O)nc(-c3ccccn3)nc2c1Br [drawing 3554]  inhibition at 20 µM        51 to 75%

Please report the measured inhibition at 20 µM for Cn1cnc(-c2nc(O)c3sc(-c4ccncc4)c(-c4ccccc4)c3n2)c1 [drawing 3549]
1 to 25%

Please report the measured inhibition at 20 µM for O=c1[nH]c(-c2ccccn2)nc2c([C@@H]3O[C@H](CO)[C@@H](O)[C@H]3O)csc12 [drawing 3527]
51 to 75%

Please report the measured inhibition at 20 µM for Oc1nc(-c2ccccn2)nc2c(-c3cncnc3)csc12 [drawing 3504]
25 to 50%

Please report the measured inhibition at 20 µM for Cc1cncc(-c2csc3c(O)nc(-c4ccccn4)nc23)c1 [drawing 3467]
25 to 50%

Please report the measured inhibition at 20 µM for Oc1nc(-c2ccccn2)nc2c1c(-c1ccccc1)nn2-c1ccccn1 [drawing 3539]
51 to 75%

Please report the measured inhibition at 20 µM for Oc1nc(-c2ccccn2)nc2c(-c3cncc(C(F)(F)F)c3)csc12 [drawing 3466]
1 to 25%

Please report the measured inhibition at 20 µM for Nc1cccc(-c2csc3c(O)nc(-c4ccccn4)nc23)n1 [drawing 3514]
76 to 100%

Please report the measured inhibition at 20 µM for COCCNc1nc(-c2ccccn2)nc(-c2cccc(OCCN(C)C)c2)c1Oc1ccccc1 [drawing 3529]
1 to 25%

###

Catalogue of inhibition at 20 µM values
target: KRas G12C/Q61H double mutant (Homo sapiens (Human), UniProt P01116, G12C/Q61H); assay: Ras GTP binding domain inhibition assay (labeled GTP); conditions: 20 μM compound; read-out: % Inhibition at 20 μM KRas G12C Q61H
Sequence (P01116-2 other isoform, or with tags, fused parts or gaps G12C/Q61H): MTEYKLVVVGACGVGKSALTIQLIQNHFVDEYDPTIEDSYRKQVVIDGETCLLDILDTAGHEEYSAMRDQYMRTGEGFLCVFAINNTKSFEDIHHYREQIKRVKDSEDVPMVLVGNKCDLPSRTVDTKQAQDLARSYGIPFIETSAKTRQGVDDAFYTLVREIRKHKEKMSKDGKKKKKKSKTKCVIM

Example results:
> print(dat)
                                   compound  observed.result
1  Oc1nc(-c2ccccn2)nc2sc3c(c12)CCCNC3 [drawing 2852]        25 to 50%
2  O=C(c1csc2c(O)nc(-c3ccccn3)nc12)N1CCOC(c2cccc(Cl)c2)C1 (stereo not drawn) [drawing 2770]        25 to 50%
3  O=C(c1csc2c(O)nc(-c3ccccn3)nc12)N1CCNC(c2ccc(O)cc2)C1 (stereo not drawn) [drawing 2808]       76 to 100%
4  O=C(c1csc2c(O)nc(-c3ccccn3)nc12)N1CCN(Cc2ccccc2)CC1 [drawing 2762]        51 to 75%
5  Cc1ccc(OC2CCCC2)c(-c2csc3c(O)nc(-c4ccccn4)nc23)c1 [drawing 2844]        51 to 75%

Please report the measured inhibition at 20 µM for O=C(CCc1nn[nH]n1)Nc1nc(-c2ccccn2)nc2sccc12 [drawing 2890]
51 to 75%

Please report the measured inhibition at 20 µM for Cc1cnc(-c2ccccn2)nc1NC(=O)C(C)c1ccc(C#N)cc1 (stereo not drawn) [drawing 2797]
51 to 75%

Please report the measured inhibition at 20 µM for N#Cc1ccc(COCC(=O)Nc2nc(-c3ccccn3)nc3sccc23)cc1 [drawing 2799]
76 to 100%

Please report the measured inhibition at 20 µM for Oc1nc(-c2ccccn2)nc2c(-c3ccc(CN4CCOCC4)cc3)csc12 [drawing 2882]
25 to 50%
